Value source: patent US20240301076A1

Assayed Target: T1, human CXCR2 (human, UniProt P25025 1-360)
T1 construct: also called CXC chemokine receptor 2; hCXCR2
T1 sequence: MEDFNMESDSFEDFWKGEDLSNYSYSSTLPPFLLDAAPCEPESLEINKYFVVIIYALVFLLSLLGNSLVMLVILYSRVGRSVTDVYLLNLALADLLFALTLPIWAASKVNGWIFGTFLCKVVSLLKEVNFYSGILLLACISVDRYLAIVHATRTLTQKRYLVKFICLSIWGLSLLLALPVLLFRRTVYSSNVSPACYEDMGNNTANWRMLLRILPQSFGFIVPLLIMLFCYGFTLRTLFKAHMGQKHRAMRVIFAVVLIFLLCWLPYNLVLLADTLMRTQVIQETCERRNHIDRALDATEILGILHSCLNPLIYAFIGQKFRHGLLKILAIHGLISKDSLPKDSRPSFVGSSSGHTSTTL
Test: flow cytometry, CXCR2-transfected Expi293F cells
Provide the recorded Fold Improvement over 4A8 WT for the entries that follow.
Lab book: enter the figure in fold, no units written.

So what's the measured Fold Improvement over 4A8 WT for this one? BKO-4A8 combinatorial variant 5b (antibody, human IgG4 S228P, lambda, V domains shown, IgG4 S228P, lambda) VH: EVQLLESGGGLVQPGGSLRLSCAASGFTFSSSTQSWVRQPPGKGLEWVSAISGRGRSTYYADSVKGRFTISRDNSKNTLYLQMNSLRAEDTAVYYCAIQKGYWGQGILVTVSS VL: QSALTQPPSASGSPGQSVTISCIGTSSDVGGYNYVSWYQQHPDKAPKLMIYEVSKRPSGVPDRFSGSKSGNTASLTVSGLQAEDEADYYCSSYAGSNNFGVFGGGTKLTVLG
1.25

Same read-out for BKO-4A8 combinatorial variant 10b (antibody, human IgG4 S228P, lambda, V domains shown, IgG4 S228P, lambda) VH: EVQLLESGGGLVQPGGSLRLSCAASGFTFSSSTMSWVRQAPGKGLEWVSAISGRGRNTYYADSVKGRFTISRDNSRNTLYLQMNSLRAEDTAVYYCAKQKGYWGQGILVTVSS VL: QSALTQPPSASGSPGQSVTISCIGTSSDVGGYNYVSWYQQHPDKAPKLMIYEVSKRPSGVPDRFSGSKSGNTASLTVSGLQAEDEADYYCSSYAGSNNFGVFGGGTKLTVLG ?
1.67

Same read-out for BKO-4A8 combinatorial variant 5c (antibody, human IgG4 S228P, lambda, V domains shown, IgG4 S228P, lambda) VH: EVQLLESGGGLVQPGGSLRLSCAASGFTFSSSTQSWVRQPPGKGLEWVSAISGRGRSTYYADSVKGRFTISRDNSKNTLYLQMNSLRAEDTAVYYCAIQKGYWGQGILVTVSS VL: QSALTQPPSASGSPGQSVTISCIGTSSDVGGYNYVSWYQQHPGKAPKLMIYEVSKRPSGVPDRFSGSKSGNTASLTVSGLQAEDEADYYCSSYAGSNNFGVFGGGTKLTVLG ?
1.25
